Tested on: OVCAR8
experimental.protocol: Cell viability / proliferation assay (Cell Titer Glo, 72 h)
Type: cell-based
assay.context: Homo sapiens, OVCAR-8; OVCAR8, 72 h; read-out: IC50, viability (relative to DMSO)
measure.name: pIC50
Note on pIC50: it is the negative log10 of concentration, concentration in mol/L.

// returns pIC50 for O=C(Cc1cccc(OC(F)(F)F)c1)Nc1ccc(CCCCc2nnc(NC(=O)Cc3ccccn3)s2)nn1 [Compound 1] with OVCAR8; value = 7.89
